Test: Cytotoxicity against mouse NIH/3T3 cells measured after 96 hrs by SRB assay
Assay type: toxicity, NIH3T3
log10 of EC50 at 96 h reference
Hi team, quick reminder: these entries are log10 of EC50 at 96 h (nM).

Recorded results for 5 compounds are shown here.
{"columns": ["Chemical String", "Readout", "Quantitative Readout"],
 "data": [
  ["CC(=O)O[C@H]1C[C@]2(C)[C@H]3CC=C4[C@@H]5CC(C)(C)CC[C@]5(C(=O)Nc5cccnc5)CC[C@@]4(C)[C@]3(C)CC[C@H]2C(C)(C)[C@H]1OC(C)=O", "log10 of EC50 at 96 h", 3.38],
  ["CC(=O)O[C@H]1C[C@]2(C)[C@H]3CC=C4[C@@H]5CC(C)(C)CC[C@]5(C(=O)Nc5ccnc6ccccc56)CC[C@@]4(C)[C@]3(C)CC[C@H]2C(C)(C)[C@H]1OC(C)=O", "log10 of EC50 at 96 h", 3.46],
  ["CC(=O)O[C@H]1CC[C@]2(C)[C@H]3CC=C4[C@@H]5[C@@H](C)[C@H](C)CC[C@]5(C(=O)Nc5cccc6ncccc56)CC[C@@]4(C)[C@]3(C)CC[C@H]2C1(C)C", "log10 of EC50 at 96 h", 3.54],
  ["CC(=O)O[C@H]1C[C@]2(C)[C@H]3CC=C4[C@@H]5[C@@H](C)[C@H](C)CC[C@]5(C(=O)Nc5cnc6ccccc6c5)CC[C@@]4(C)[C@]3(C)CC[C@H]2C(C)(C)[C@H]1OC(C)=O", "log10 of EC50 at 96 h", 3.34],
  ["CC(=O)O[C@H]1C[C@]2(C)[C@H]3CC=C4[C@@H]5CC(C)(C)CC[C@]5(C(=O)Nc5ccc6cccnc6c5)CC[C@@]4(C)[C@]3(C)CC[C@H]2C(C)(C)[C@H]1OC(C)=O", "log10 of EC50 at 96 h", 2.85]
]}

CC(=O)O[C@H]1C[C@]2(C)[C@H]3CC=C4[C@@H]5CC(C)(C)CC[C@]5(C(=O)Nc5cccc6ncccc56)CC[C@@]4(C)[C@]3(C)CC[C@H]2C(C)(C)[C@H]1OC(C)=O has a reported log10 of EC50 at 96 h of 3.93

Sample CC(=O)O[C@H]1C[C@]2(C)[C@H]3CC=C4[C@@H]5CC(C)(C)CC[C@]5(C(=O)Nc5ccncc5)CC[C@@]4(C)[C@]3(C)CC[C@H]2C(C)(C)[C@H]1OC(C)=O ; log10 of EC50 at 96 h observed: 3.26

Looking up CC(=O)O[C@H]1C[C@]2(C)[C@H]3CC=C4[C@@H]5CC(C)(C)CC[C@]5(C(=O)Nc5ccc6ncccc6c5)CC[C@@]4(C)[C@]3(C)CC[C@H]2C(C)(C)[C@H]1OC(C)=O , I see its log10 of EC50 at 96 h listed as 2.78

For reference, reported log10 of EC50 at 96 h for CC(=O)O[C@H]1C[C@]2(C)[C@H]3CC=C4[C@@H]5CC(C)(C)CC[C@]5(C(=O)Nc5cnc6ccccc6c5)CC[C@@]4(C)[C@]3(C)CC[C@H]2C(C)(C)[C@H]1OC(C)=O stands at 2.95
